assay explanation: sensitizers of A549 cells to miR-34 induction, primary screen, imaging, A549 dox-inducible miR-34, nuclei and caspase counts (AID 1347080); note: test concentration not given here
test parameters: A549 miR-34 inducible, Hoechst nuclei count, 48 h; measured here: relative caspase fold change +Dox/-Dox
Under this convention, fulfilled denotes fold change strictly below 2 and not fulfilled denotes fold change at or above 2.

compound: O=[N+]([O-])c1ncc[nH]1
answer label: fulfilled

Shift focus to the following entry.
Please state whether fold change is below 2 for CCCCCCC(C)(C)c1cc(OC)c2c(c1)OC(C)(C)[C@@H]1CC=C(C)C[C@@H]21
fulfilled

----------
assay explanation: rescue of polyQ-huntingtin neuronal dysfunction in worms, whole organism, C. elegans mechanosensory neurons, N-terminal huntingtin (AID 1599)
test parameters: touch response, stronger effect = higher value
Potency and affinity values are given separately.
parameter measured: rescue above control
I only need the number, thanks.

Some compounds with recorded rescue above control:
compound: COc1ccc2c(c1OC)C(=O)O[C@H]2[C@H]1c2cc3c(cc2CCN1C)OCO3
parameter measured: rescue above control
result number: -6.7

compound: C/C=C(/C)C(=O)O[C@H]1CC[C@@]2(C)[C@@H]3CC[C@H]4[C@]5(O)C[C@H](O)[C@@]6(O)[C@@H](CN7C[C@@H](C)CC[C@H]7[C@@]6(C)O)[C@]5(O)C[C@@]42O[C@]13O
parameter measured: rescue above control
result number: 6.62

compound: CC(=O)C1=C(O)C2C3c4c[nH]c5cccc(c45)CC3C(C)(C)N2C1=O (centres undefined)
parameter measured: rescue above control
result number: 9.72

compound: CNC(C)Cc1ccc2c(c1)OCO2 (centres undefined)
parameter measured: rescue above control
result number: -0.64

compound: CCOC(=O)C1(c2ccccc2)CCN(C)CC1
parameter measured: rescue above control
result number: 5.54

The compound identified as O=c1ccc2cc(O[C@H]3O[C@H](CO)[C@@H](O)[C@H](O)[C@H]3O)c(O)cc2o1 registered its rescue above control at -9.34

The compound identified as O=[N+]([O-])c1cc([As](=O)(O)O)ccc1O registered its rescue above control at -4.04

The compound identified as CN(C)[C@@H]1C(=O)C(C(N)=O)=C(O)[C@@]2(O)C(=O)C3=C(O)c4c(O)cccc4[C@@](C)(O)[C@H]3C[C@@H]12 registered its rescue above control at -1.89
